Attribution: the nanobody polyreactivity screen of Harvey et al. (2022)

# Measurement notes: yeast display, Sf9 membrane polyspecificity reagent, FACS + sequencing; frameworks hold sequencing errors
Readout: polyreactivity (PSR sort gate)

QVQLVESGGGLVQAGGSLRLSCAASGFTFEEYAMGWYRQAPGKERELVAAIDYTVGSTYYADSVKGRFTISRDNAKNTVYLQMNSLKPEDTAVYYCNVDLSYSFNSAYGYWGQGTQVTVSS
low polyreactivity
QVQLVESGGGLVQAGGSLRLSCAASGRIFTRYAMGWYRQAPGKERELVAVITRSGGSTYYADSVKGRFTISRDNAKNTVYLQMTSLKPEDTAVYYCAAKYYGEMYYWGQGTQVTVSS
low polyreactivity

* * *

# Measurement notes: yeast display, Sf9 membrane polyspecificity reagent, FACS + sequencing; frameworks hold sequencing errors
Readout: polyreactivity (PSR sort gate)

QVQLVESGGGLVQAGGSLRLSCAASGFIFWYYDMGWYRPAPGKEREFVAAITRSSGSTYYADSVKGRFTISRDNAKNTVYLQMNSLKPEDTAVYYCNADSVAYGDEYDYWGQGTQVTVSS
low polyreactivity
QVQLVESGGGLVQAGGSLRLSCAASGSIFRRYAMGGYRQAPGKERELVAAITSGDTTKYADSVKGRFTISRDNAKNTVYLQMNSLKPEDTAVYYCNKKGWPRFVHGFLRRDDYWGQGTQVTVSS
low polyreactivity
QVQLVESGGGLVQAGGSLRLSCAASGIIFNYYTMGWYRQAPGKERELVAVISWRGGSTFYADSVKGRFTISRDNAKNTVYLQMNSLKPEDTAVYYCAAVLFGDYPPVYYPTEYDYWGQGTQVTVSS
low polyreactivity

* * *

# Measurement notes: yeast display, Sf9 membrane polyspecificity reagent, FACS + sequencing; frameworks hold sequencing errors
Readout: polyreactivity (PSR sort gate)

QVQLVESGGGLVQAGGSLRLSCAASGRNFSSYAMGWYIQAPGKERELVAAITSGGRTKYADSVKGRFTISRDNAKNTVYLQMNSLKPEDTAVYYCAARNHWVRYLRYDYWGQGTQVTVSS
high polyreactivity
QVQLVESGGGLVQAGGSLRLSCAASGRIFYVYALGWYRQAPGKERELVAAIDWNGGTTYYADSVKGRFTISRDNAKNTVYLQMNSLKPEDTAVYYCAVSLQGYNQVDYYYWGQGTQVTVSS
high polyreactivity
QVQLVESGGGLVQAGGSLRLSCAASGRIFYYNAMGWYRQAPGKERELVASITWSGARTYYADSVKGRFTISRDNAKNTVYLQMNSLKPEDTAVYYCNAATSYYTYTYGYWGQGTQVTVSS
high polyreactivity
QVQLVESGGGLVQAGGSLRLSCAASGRIFWYYVMGWSRQAPGKEREFVASISSGGSTYYADSVKGRFTISRDNAKNTVYLQMNSLKPEDTAVYYCNAYVYGQRVWYDYWGQGTQVTVSS
high polyreactivity

* * *

# Measurement notes: yeast display, Sf9 membrane polyspecificity reagent, FACS + sequencing; frameworks hold sequencing errors
Readout: polyreactivity (PSR sort gate)

# example entries with known answers
QVKLVESGGGLVQAGGSHRLSCAASGSIFGDYVMGSYRQAPGKEMELVAAINRGGSTYYADSVKGRFTISRDNAKNTVYLQMNSLKPADTAVYYCAAGYPSWYYGYPYDSWGQGTQVTVSS
low polyreactivity
QGQLVESGGGLVQAGGRLRLSCAASGSIFRAYAMGWYRQAPGKERELVADISRSGGSTYYADSVKGRFTISRDNAKNTVYLQMNSLKPEDTAVYYCYAPVGWSVEARVSRGYEDQYDYWGQGSQVTVSS
low polyreactivity
QVQLVESGGGLVQAGGSLRLSCAASGITFPRYVMGWYRQAPGKEREFVAAINYSGGRTYYADSVKGRFTISRDNAKNTVYLQMKSLKPEDTAVYYCAVDLHVWPFWFDYWGQGTQVTVSS
high polyreactivity
QVQLVESGGGLDQAGGSLRLSCAASGFIFPGNAMGWYRQAPGKERELVAAISWRVGRTYYADSVKGRFTISRDNAKNTVYLQMNSLKPEDTAVYYCAVARSSPEYYYWGQGTQVTVSS
high polyreactivity
QVQLVESGGGLVQAGGSLRLSCAASGSTFFRYAMGLYRQAPGKEREFVAAITSSGGNTYYADSVKGRFTISRDNAKNTVYLQMNSLKPEDTAVYYCAAVWYSPYVKYNYWGQGTQVTVSS
low polyreactivity

Short answer for "QVQLVESGGGLVQAGGSLRLSCAASGRIFQGYAKGWYRQAPGKERELVAAIRTGGSTNYADSVKGRFTISRDNAKNTVYLQMNSLKPEDTAVYYCNAVGQLYFYFPRGDYWGQGTQVTVSS" : polyreactivity (PSR sort gate) was low polyreactivity

Documented polyreactivity (PSR sort gate) of "QVQLVESGGGLVQAGGSLRLSCAASGIIFWYYAMGWYRQAPGKERELVAAINSGGSTNYADSVKGRFTISRDNAKNTVYLQMNSLKQEDTAVYYCAARYRWPIPGTQYEYWGQGTQVTVSS" : low polyreactivity
